Measured target: T1, recombinant human PCSK9 protein, His-tagged (Immunogen A, hPCSK9-His) (human, UniProt Q8NBP7 31-692, limits assumed, biotin-labelled in the ELISA and blocking assays (Biotin labeling kit))
T1 construct: also called human PCSK9-His; recombinant hPCSK9-His; not shown: His tag
Method: blocking ELISA, biotin-hPCSK9-His on coated LDLR ECD-His; antibody 8 nM
Measured attribute: OD450 nm (PCSK9 bound to LDLR) (OD450 nm)
Numeric answer only, unit OD450 nm assumed.

// query May I ask what OD450 nm (PCSK9 bound to LDLR) has been recorded for 139G1C5, chimeric anti-PCSK9 mAb purified from hybridoma (antibody, V domains shown, From Harbour H2L2 mice: human variable regions, rat constant regions) VH: QVQLQESGPGLVKPSGTLSLTCAVSGGSISRNNWWSWVRQPPGKGLEWIGEIYHSGSTNYNPSLKSRVTISVDKSKNQFSLKLSSVTAADTAVYYCARDLLGIGLDYWGQGTLVTVSS VL: EFVLTQSPATLSLSPGERAILSCRASQSFSSYIAWYQQKPGQAPRLLIYDASNRATGIPARFSGSGSGTDFTLTISSLEPEDFAVYYCQQHSNWMYTFGQGTKLEIK ?
// result 0.61
